Assay system: 5-HT7 (Homo sapiens, UniProt P34969)
Construct: purchased Euroscreen/BioSignal Packard Inc
Sequence (P34969 whole entry): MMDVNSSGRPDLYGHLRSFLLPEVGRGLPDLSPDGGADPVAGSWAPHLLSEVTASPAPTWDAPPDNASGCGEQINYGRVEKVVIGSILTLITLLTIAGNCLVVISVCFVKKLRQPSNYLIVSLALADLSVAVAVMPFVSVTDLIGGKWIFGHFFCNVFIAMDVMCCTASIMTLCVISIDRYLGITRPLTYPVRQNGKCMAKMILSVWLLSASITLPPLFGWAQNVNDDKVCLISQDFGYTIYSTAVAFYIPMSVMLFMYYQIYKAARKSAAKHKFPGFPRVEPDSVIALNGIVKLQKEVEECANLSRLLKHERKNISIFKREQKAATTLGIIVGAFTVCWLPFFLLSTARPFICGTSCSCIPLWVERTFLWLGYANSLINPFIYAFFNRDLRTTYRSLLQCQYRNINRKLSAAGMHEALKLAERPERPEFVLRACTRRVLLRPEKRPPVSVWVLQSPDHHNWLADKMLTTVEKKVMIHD
Run description: Radioligand binding, 5-HT receptor family: 5-HT7 ([3H]LSD)
Assay conditions: CHO-K1 human recombinant receptor, [3H]LSD 3 nM; read-out: Binding affinity, IC50 (nM), 5-HT7
Readout kind: IC50 (nM)
Output spec: scalar in nM, unitless text.

Asked: Requested read-out: IC50. Entry: CN1CCN(c2cc(Cl)cc3c2S(=O)(=O)N(Cc2ccccc2)C(=O)N3Cc2ccccc2)CC1
Given back: 6580

Asked: Requested read-out: IC50. Entry: COc1cccc(CN2C(=O)N(Cc3ccccc3)c3cc(Cl)cc(N4CCNCC4)c3S2(=O)=O)c1
Given back: 6780

----------
Assay system: 5-HT2c (Homo sapiens, UniProt P28335)
Construct: purchased Euroscreen/BioSignal Packard Inc
Sequence (P28335 33-458): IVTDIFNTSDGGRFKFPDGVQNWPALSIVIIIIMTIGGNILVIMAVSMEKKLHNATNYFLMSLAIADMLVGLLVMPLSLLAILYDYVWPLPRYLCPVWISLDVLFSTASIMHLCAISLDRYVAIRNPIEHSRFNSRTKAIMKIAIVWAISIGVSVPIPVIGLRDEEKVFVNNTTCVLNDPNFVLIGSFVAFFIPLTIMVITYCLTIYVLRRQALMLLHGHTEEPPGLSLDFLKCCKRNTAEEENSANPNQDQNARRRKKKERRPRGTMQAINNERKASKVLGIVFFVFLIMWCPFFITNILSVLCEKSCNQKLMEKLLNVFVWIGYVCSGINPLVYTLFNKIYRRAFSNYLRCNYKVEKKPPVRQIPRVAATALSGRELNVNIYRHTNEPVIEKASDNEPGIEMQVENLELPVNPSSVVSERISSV
Run description: Radioligand binding, 5-HT receptor family: 5-HT2c ([3H]Mesulergine)
Assay conditions: CHO-K1 human recombinant receptor, [3H]Mesulergine 1 nM; read-out: Binding affinity, IC50 (nM), 5-HT2c
Consider the following molecules; for each one, report its IC50.
Output spec: scalar in nM, unitless text.

Asked: Requested read-out: IC50. Entry: CN1CCN(c2cc(Cl)cc3c2S(=O)(=O)N(Cc2ccccc2Cl)C(=O)N3Cc2ccccc2)CC1
Given back: 240

Asked: Requested read-out: IC50. Entry: C[C@@H](c1ccccc1)N1C(=O)N(Cc2ccccc2)c2cc(Cl)cc(N3CCNCC3)c2S1(=O)=O
Given back: 508

Asked: Requested read-out: IC50. Entry: Cc1cc(C)cc(CCCN2C(=O)N(Cc3ccccc3)c3cc(Cl)cc(N4CCNCC4)c3S2(=O)=O)c1
Given back: 498

Asked: Requested read-out: IC50. Entry: O=C1N(Cc2ccccc2)c2cc(Cl)cc(N3CCNCC3)c2S(=O)(=O)N1Cc1ccccc1
Given back: 1880

Asked: Requested read-out: IC50. Entry: CCCCCCCCN1C(=O)N(Cc2ccccc2)c2cc(Cl)cc(N3CCN(C)CC3)c2S1(=O)=O
Given back: 1050

Asked: Requested read-out: IC50. Entry: Cc1cc(C)cc(CCCN2C(=O)N(Cc3ccccc3)c3cc(Cl)cc(N4CCN(C)CC4)c3S2(=O)=O)c1
Given back: 508

Asked: Requested read-out: IC50. Entry: COc1cccc(N2C(=O)N(Cc3ccccc3)c3cc(Cl)cc(N4CCNCC4)c3S2(=O)=O)c1
Given back: 4960

----------
Consider the following compounds; for each one, report its log10 of IC50.
Assay system: Human serotonin 5-HT6 receptor (Homo sapiens)
Sequence (P50406 whole entry): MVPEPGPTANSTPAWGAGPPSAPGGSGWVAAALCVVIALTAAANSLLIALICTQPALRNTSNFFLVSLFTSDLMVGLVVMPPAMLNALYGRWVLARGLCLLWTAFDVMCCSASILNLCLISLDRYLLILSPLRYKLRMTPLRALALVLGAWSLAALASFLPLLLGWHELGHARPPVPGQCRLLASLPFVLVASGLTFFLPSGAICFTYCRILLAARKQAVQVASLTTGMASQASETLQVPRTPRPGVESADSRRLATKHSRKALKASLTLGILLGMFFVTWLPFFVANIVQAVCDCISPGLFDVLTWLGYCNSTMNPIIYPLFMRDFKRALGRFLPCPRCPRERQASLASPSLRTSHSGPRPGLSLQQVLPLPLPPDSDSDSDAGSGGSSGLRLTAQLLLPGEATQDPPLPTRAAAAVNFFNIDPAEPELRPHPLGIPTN
Run description: [3H]LSD binding assay on cloned 5-HT6 receptor
Assay conditions: IC50 (nM), binding affinity to the 5-HT6 receptor, Table 2; 1.87 nM [3H]LSD, cloned human receptor membranes from Sf21 cells, 37° C. 60 min
Field: value | Transform: log10 | Quantity: IC50 | Unit: nM

Asked: Requested read-out: log10 of IC50. Entry: CCCCN1C(=O)N(Cc2ccccc2)c2cc(Cl)cc(N3CCN(C)CC3)c2S1(=O)=O
Given back: 0.28

Asked: Requested read-out: log10 of IC50. Entry: CN1CCN(c2cc(Cl)cc3c2S(=O)(=O)N(Cc2ccccc2Br)C(=O)N3Cc2ccccc2)CC1
Given back: 0.95

Asked: Requested read-out: log10 of IC50. Entry: O=C1N(Cc2ccccc2)c2cc(Cl)cc(N3CCNCC3)c2S(=O)(=O)N1Cc1cccc2ccccc12
Given back: 0.84

Asked: Requested read-out: log10 of IC50. Entry: C[C@H]1CN(c2cc(Cl)cc3c2S(=O)(=O)N(Cc2ccccc2Cl)C(=O)N3Cc2ccccc2)CCN1
Given back: 0.83

Asked: Requested read-out: log10 of IC50. Entry: CCN1C(=O)N(Cc2ccccc2)c2cc(Cl)cc(N3CCN(C)CC3)c2S1(=O)=O
Given back: -0.52

Asked: Requested read-out: log10 of IC50. Entry: COc1ccc(N2C(=O)N(Cc3ccccc3)c3cc(Cl)cc(N4CCN(C)CC4)c3S2(=O)=O)cc1
Given back: 0.72

Asked: Requested read-out: log10 of IC50. Entry: C[C@H](c1ccccc1)N1C(=O)N(Cc2ccccc2)c2cc(Cl)cc(N3CCNCC3)c2S1(=O)=O
Given back: 0.36

Asked: Requested read-out: log10 of IC50. Entry: COc1cccc(N2C(=O)N(Cc3ccccc3)c3cc(Cl)cc(N4CCNCC4)c3S2(=O)=O)c1
Given back: 1.01

Asked: Requested read-out: log10 of IC50. Entry: O=C1N(Cc2ccccc2)c2cc(Cl)cc(N3CCNCC3)c2S(=O)(=O)N1Cc1ccccc1[N+](=O)[O-]
Given back: 1.52

Asked: Requested read-out: log10 of IC50. Entry: Cc1ccccc1CN1C(=O)N(Cc2ccccc2)c2cc(Cl)cc(N3CCNCC3)c2S1(=O)=O
Given back: 1.35

Asked: Requested read-out: log10 of IC50. Entry: O=C1N(Cc2ccccc2)c2cc(Cl)cc(N3CCNCC3)c2S(=O)(=O)N1Cc1ccccc1
Given back: -0.05

Asked: Requested read-out: log10 of IC50. Entry: CN1CCN(c2cc(Cl)cc3c2S(=O)(=O)N(Cc2cccc([N+](=O)[O-])c2)C(=O)N3Cc2ccccc2)CC1
Given back: 0.62

Asked: Requested read-out: log10 of IC50. Entry: COC(=O)c1ccc(CN2C(=O)N(Cc3ccccc3)c3cc(Cl)cc(N4CCN(C)CC4)c3S2(=O)=O)cc1
Given back: 1.46

Asked: Requested read-out: log10 of IC50. Entry: COc1cccc(CN2C(=O)N(Cc3ccccc3)c3cc(Cl)cc(N4CCNCC4)c3S2(=O)=O)c1
Given back: 0.76

Asked: Requested read-out: log10 of IC50. Entry: O=C1N(Cc2ccccc2)c2cc(Cl)cc(N3CCN4CCC[C@H]4C3)c2S(=O)(=O)N1Cc1ccccc1Cl
Given back: 1.20

Asked: Requested read-out: log10 of IC50. Entry: CN1CCN(c2cc(Cl)cc3c2S(=O)(=O)N(CC2CCCCC2)C(=O)N3Cc2ccccc2)CC1
Given back: 0.18

Asked: Requested read-out: log10 of IC50. Entry: Cc1cc(C)cc(CCCN2C(=O)N(Cc3ccccc3)c3cc(Cl)cc(N4CCN(C)CC4)c3S2(=O)=O)c1
Given back: -0.22

Asked: Requested read-out: log10 of IC50. Entry: CN1CCN(c2cc(Cl)cc3c2S(=O)(=O)N(Cc2ccccc2)C(=O)N3Cc2ccccc2)CC1
Given back: 0.28

Asked: Requested read-out: log10 of IC50. Entry: C[C@@H](c1ccccc1)N1C(=O)N(Cc2ccccc2)c2cc(Cl)cc(N3CCNCC3)c2S1(=O)=O
Given back: 0.48

Asked: Requested read-out: log10 of IC50. Entry: COc1ccccc1CN1C(=O)N(Cc2ccccc2)c2cc(Cl)cc(N3CCNCC3)c2S1(=O)=O
Given back: 1.69

Asked: Requested read-out: log10 of IC50. Entry: COc1ccccc1N1C(=O)N(Cc2ccccc2)c2cc(Cl)cc(N3CCNCC3)c2S1(=O)=O
Given back: 1.71

----------
Assay system: hD2L receptor (Homo sapiens)
Construct: purchased BioSignal Packard Inc., Montreal, Canada
Sequence (P14416 whole entry): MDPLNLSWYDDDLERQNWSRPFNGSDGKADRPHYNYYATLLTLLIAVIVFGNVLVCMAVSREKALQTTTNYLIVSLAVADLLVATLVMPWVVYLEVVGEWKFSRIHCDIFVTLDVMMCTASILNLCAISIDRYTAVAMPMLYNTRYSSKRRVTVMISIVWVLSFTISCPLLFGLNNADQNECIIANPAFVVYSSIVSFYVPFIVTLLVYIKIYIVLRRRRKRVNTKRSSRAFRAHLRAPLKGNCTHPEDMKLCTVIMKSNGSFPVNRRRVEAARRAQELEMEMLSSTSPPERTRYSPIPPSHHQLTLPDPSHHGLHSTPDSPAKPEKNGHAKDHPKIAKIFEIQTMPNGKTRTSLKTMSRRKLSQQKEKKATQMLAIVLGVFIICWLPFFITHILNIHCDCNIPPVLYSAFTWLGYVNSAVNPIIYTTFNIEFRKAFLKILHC
Run description: Dopamine receptor family binding: D2 ([3H]spiperone)
Assay conditions: [3H]spiperone 1 nM; read-out: Binding affinity, IC50 (nM), D2
Experimental: 2-2: Binding Assays of Dopamine Receptor Family The radioligands used were [^3H]spiperone (for hD2L and hD3 receptors, 1 nM) and [^3H] YM-09151-2 (for hD4.2 receptor, 0.06 nM). […] Competition binding studies were carried out with 7-8 concentrations of the test compound run in duplicate tubes, and isotherms from three assays were calculated by computerized nonlinear regression analysis (GraphPad Prism Program, San Diego, […]) to yield median inhibitory concentration (IC50) values.
Consider the following compounds; for each one, report its IC50.

Asked: Requested read-out: IC50. Entry: CN1CCN(c2cc(Cl)cc3c2S(=O)(=O)N(Cc2ccc(Cl)cc2)C(=O)N3Cc2ccccc2)CC1
Given back: > 10000 nM

Asked: Requested read-out: IC50. Entry: CN1CCN(c2cc(Cl)cc3c2S(=O)(=O)N(Cc2cccc(F)c2)C(=O)N3Cc2ccccc2)CC1
Given back: > 10000 nM

Asked: Requested read-out: IC50. Entry: CCCCCCCCN1C(=O)N(Cc2ccccc2)c2cc(Cl)cc(N3CCN(C)CC3)c2S1(=O)=O
Given back: > 10000 nM

Asked: Requested read-out: IC50. Entry: COc1cccc(N2C(=O)N(Cc3ccccc3)c3cc(Cl)cc(N4CCNCC4)c3S2(=O)=O)c1
Given back: > 10000 nM

Asked: Requested read-out: IC50. Entry: CN1CCN(c2cc(Cl)cc3c2S(=O)(=O)N(Cc2cccc4ccccc24)C(=O)N3Cc2ccccc2)CC1
Given back: > 10000 nM

Asked: Requested read-out: IC50. Entry: CCCN1C(=O)N(Cc2ccccc2)c2cc(Cl)cc(N3CCN(C)CC3)c2S1(=O)=O
Given back: > 10000 nM

Asked: Requested read-out: IC50. Entry: Cc1cc(C)cc(CCCN2C(=O)N(Cc3ccccc3)c3cc(Cl)cc(N4CCN(C)CC4)c3S2(=O)=O)c1
Given back: > 10000 nM

Asked: Requested read-out: IC50. Entry: CN1CCN(c2cc(Cl)cc3c2S(=O)(=O)N(Cc2ccccc2)C(=O)N3Cc2ccccc2)CC1
Given back: 5810 nM

Asked: Requested read-out: IC50. Entry: CN1CCN(c2cc(Cl)cc3c2S(=O)(=O)N(Cc2ccccc2Cl)C(=O)N3Cc2ccccc2)CC1
Given back: 5090 nM

Asked: Requested read-out: IC50. Entry: CN1CCN(c2cc(Cl)cc3c2S(=O)(=O)N(c2ccccc2)C(=O)N3Cc2ccccc2)CC1
Given back: > 10000 nM

Asked: Requested read-out: IC50. Entry: CCN1C(=O)N(Cc2ccccc2)c2cc(Cl)cc(N3CCN(C)CC3)c2S1(=O)=O
Given back: > 10000 nM

Asked: Requested read-out: IC50. Entry: CN1CCN(c2cc(Cl)cc3c2S(=O)(=O)N(Cc2ccccc2F)C(=O)N3Cc2ccccc2)CC1
Given back: > 10000 nM

Asked: Requested read-out: IC50. Entry: C[C@@H](c1ccccc1)N1C(=O)N(Cc2ccccc2)c2cc(Cl)cc(N3CCNCC3)c2S1(=O)=O
Given back: 4640 nM

Asked: Requested read-out: IC50. Entry: C[C@H](c1ccccc1)N1C(=O)N(Cc2ccccc2)c2cc(Cl)cc(N3CCNCC3)c2S1(=O)=O
Given back: 4500 nM

Asked: Requested read-out: IC50. Entry: COc1ccc(CN2C(=O)N(Cc3ccccc3)c3cc(Cl)cc(N4CCNCC4)c3S2(=O)=O)cc1
Given back: 2440 nM
